Test system: Streptococcus sanguinis
Experimental Protocol: Antimicrobial activity against Streptococcus sanguinis NY101 at 25 ug/ml after 30 mins by time-kill assay
Type: functional, organism-based
Calls of active or inactive are those of the source. No cut-off for these calls is given here.
Metric Name: Activity

1) H-FIKHFIHRFGGGRWRWRWF-NH2 ... Active
2) H-FIKHFIHRFGGGFKKFWKWFRRF-NH2 ... Active
3) H-FKKFWKWFRRF-NH2 ... Active
4) H-RWRWRWF-NH2 ... Active

* * *

System: Streptococcus mitis
Experimental Protocol: Antimicrobial activity against Streptococcus mitis ATCC 903 after 16 to 20 hrs by broth microdilution assay
Format: functional
Kindly supply the reported MIC values for the records listed here.
Could you give me the number in mg/L? Just the number is fine.

Report MIC for H-WWHSWWSTW-NH2
125

Report MIC for H-FIKHFIHRFGGGRWRWRWF-NH2
32

Report MIC for H-IKQLLHFFQRFGGGFIKHFIHRF-NH2
16

Report MIC for H-FKKFWKWFRRFGGGFIKHFIHRF-NH2
62.5

Report MIC for H-FIKHFIHRFSGGRWRRLLKKLHHLLH-NH2
62.5

Report MIC for H-RWRWRWFSATFIKHFIHRF-NH2
16

Report MIC for H-FIKHFIHRFSATRWRRLLKKLHHLLH-NH2
32

Report MIC for H-RWRWRWFSGGFIKHFIHRF-NH2
32

Report MIC for H-FIKHFIHRFGGGFKKFWKWFRRF-NH2
32

Report MIC for H-FIKHFIHRFGGGIKQLLHFFQRF-NH2
16

Report MIC for H-FIKHFIHRFSGGLQLLKQLLKLLKQF-NH2
62.5

* * *

Kindly supply the reported MIC values for the records listed here.
Test system: Escherichia coli
Experimental Protocol: Antimicrobial activity against Escherichia coli W3110 after 16 to 20 hrs by broth microdilution assay
Format: functional
Could you give me the number in µg/mL? Just the number is fine.

Report MIC for H-FHFHLHFGGGFIKHFIHRF-NH2
62.5

Report MIC for H-FHFHLHFPSPSPFIKHFIHRF-NH2
62.5

Report MIC for H-WWHSWWSTW-NH2
125

Report MIC for H-FHFHLHFPSGSPFIKHFIHRF-NH2
125

Report MIC for H-LIKHILHRLGGGFHFHLHF-NH2
250

Report MIC for H-FHFHLHFSATFIKHFIHRF-NH2
125

Report MIC for H-FHFHLHFASASAFIKHFIHRF-NH2
62.5

Report MIC for H-FHFHLHF-NH2
8

Report MIC for H-WWSYWWTQW-NH2
125

* * *

Tested on: Staphylococcus aureus
Experimental Protocol: Antimicrobial activity against methicillin-resistant Staphylococcus aureus after 16 to 20 hrs by broth microdilution assay
Type: functional
Kindly supply the reported MIC values for the records listed here.
Could you give me the number in µg/mL? Just the number is fine.

Report MIC for H-FIKHFIHRFGGGRWRWRWF-NH2
32

Report MIC for H-IKQLLHFFQRF-NH2
62.5

Report MIC for H-FIKHFIHRFSGGLQLLKQLLKLLKQF-NH2
32

Report MIC for H-FHFHLHFASASAFIKHFIHRF-NH2
62.5

Report MIC for H-FHFHLHFGGGFIKHFIHRF-NH2
125

Report MIC for H-LQLLKQLLKLLKQF-NH2
16

Report MIC for H-RWRRLLKKLHHLLHSATFIKHFIHRF-NH2
32

Report MIC for H-LQLLKQLLKLLKQFSATFIKHFIHRF-NH2
32

Report MIC for H-FIKHFIHRFSGGRWRRLLKKLHHLLH-NH2
32

Report MIC for H-RWRWRWF-NH2
32

* * *

Kindly supply the reported MIC values for the records listed here.
System: Streptococcus mitis
Experimental Protocol: Antimicrobial activity against Streptococcus mitis ATCC 903 after 16 to 20 hrs by broth microdilution assay
Type: functional
Could you give me the number in µg/mL? Just the number is fine.

Report MIC for H-LQLLKQLLKLLKQF-NH2
16

Report MIC for H-WWSYWWTQW-NH2
125

Report MIC for H-IKQLLHFFQRF-NH2
62.5

Report MIC for H-FIKHFIHRFSGGRWRWRWF-NH2
32

Report MIC for H-RWRWRWFGGGFIKHFIHRF-NH2
32

Report MIC for H-RWRRLLKKLHHLLH-NH2
32

Report MIC for H-FIKHFIHRFSATRWRWRWF-NH2
16

* * *

System: Staphylococcus aureus
Experimental Protocol: Antimicrobial activity against methicillin-resistant Staphylococcus aureus after 16 to 20 hrs by broth microdilution assay
Type: functional
Metric Name: MIC (µg/mL)
Could you give me the number in µg/mL? Just the number is fine.

Report MIC for H-RWRWRWFSATFIKHFIHRF-NH2
62.5

Report MIC for H-FIKHFIHRFSATRWRWRWF-NH2
125

Report MIC for H-RWRRLLKKLHHLLH-NH2
16

Report MIC for H-FIKHFIHRFGGGFKKFWKWFRRF-NH2
16

Report MIC for H-LQLLKQLLKLLKQFSGGFIKHFIHRF-NH2
32

Report MIC for H-FKKFWKWFRRFGGGFIKHFIHRF-NH2
32

* * *

Test system: Staphylococcus aureus
Experimental Protocol: Antimicrobial activity against methicillin-resistant Staphylococcus aureus after 16 to 20 hrs by broth microdilution assay
Format: functional
Metric Name: MIC (µg/mL)
Could you give me the number in µg/mL? Just the number is fine.

System Staphylococcus aureus. Read-out MIC. Item H-RWRWRWFSGGFIKHFIHRF-NH2 . Report value.
32

System Staphylococcus aureus. Read-out MIC. Item H-FHFHLHF-NH2 . Report value.
32

System Staphylococcus aureus. Read-out MIC. Item H-FIKHFIHRFSATLQLLKQLLKLLKQF-NH2 . Report value.
62.5

System Staphylococcus aureus. Read-out MIC. Item H-FIKHFIHRFSGGRWRWRWF-NH2 . Report value.
32

System Staphylococcus aureus. Read-out MIC. Item H-LIKHILHRLGGGFHFHLHF-NH2 . Report value.
62.5

System Staphylococcus aureus. Read-out MIC. Item H-FIKHFIHRFSATRWRRLLKKLHHLLH-NH2 . Report value.
16

System Staphylococcus aureus. Read-out MIC. Item H-FIKHFIHRFGGGIKQLLHFFQRF-NH2 . Report value.
62.5

System Staphylococcus aureus. Read-out MIC. Item H-RWRWRWFGGGFIKHFIHRF-NH2 . Report value.
32

System Staphylococcus aureus. Read-out MIC. Item H-RWRRLLKKLHHLLHSGGFIKHFIHRF-NH2 . Report value.
32

System Staphylococcus aureus. Read-out MIC. Item H-IKQLLHFFQRFGGGFIKHFIHRF-NH2 . Report value.
62.5

System Staphylococcus aureus. Read-out MIC. Item H-FKKFWKWFRRF-NH2 . Report value.
16

System Staphylococcus aureus. Read-out MIC. Item H-FHFHLHFSATFIKHFIHRF-NH2 . Report value.
125

* * *

Kindly supply the reported MIC values for the records listed here.
Tested on: Streptococcus mitis
Experimental Protocol: Antimicrobial activity against Streptococcus mitis ATCC 903 after 16 to 20 hrs by broth microdilution assay
Type: functional

Report MIC for H-FKKFWKWFRRF-NH2
16 µg/mL

Report MIC for H-LQLLKQLLKLLKQFSATFIKHFIHRF-NH2
32 µg/mL

Report MIC for H-FIKHFIHRFSATLQLLKQLLKLLKQF-NH2
32 µg/mL

Report MIC for H-RWRRLLKKLHHLLHSATFIKHFIHRF-NH2
16 µg/mL

Report MIC for H-LQLLKQLLKLLKQFSGGFIKHFIHRF-NH2
32 µg/mL

Report MIC for H-RWRWRWF-NH2
32 µg/mL

Report MIC for H-RWRRLLKKLHHLLHSGGFIKHFIHRF-NH2
32 µg/mL

* * *

Tested on: Pseudomonas aeruginosa
Experimental Protocol: Antimicrobial activity against Pseudomonas aeruginosa PAK after 16 to 20 hrs by broth microdilution assay
Format: functional
Metric Name: MIC (µg/mL)
Could you give me the number in µg/mL? Just the number is fine.

Report MIC for H-FIKHFIHRFSGGRWRRLLKKLHHLLH-NH2
32

Report MIC for H-LQLLKQLLKLLKQF-NH2
8

Report MIC for H-RWRWRWFGGGFIKHFIHRF-NH2
62.5

Report MIC for H-FHFHLHFASASAFIKHFIHRF-NH2
125

Report MIC for H-FIKHFIHRFGGGRWRWRWF-NH2
62.5

Report MIC for H-RWRRLLKKLHHLLHSATFIKHFIHRF-NH2
32

Report MIC for H-FIKHFIHRFSATLQLLKQLLKLLKQF-NH2
32

Report MIC for H-FHFHLHFGGGFIKHFIHRF-NH2
62.5

Report MIC for H-LIKHILHRLGGGFHFHLHF-NH2
250

Report MIC for H-RWRWRWF-NH2
32

Report MIC for H-FIKHFIHRFGGGFKKFWKWFRRF-NH2
62.5

Report MIC for H-FHFHLHFSATFIKHFIHRF-NH2
125

Report MIC for H-FIKHFIHRFSATRWRRLLKKLHHLLH-NH2
32

Report MIC for H-LQLLKQLLKLLKQFSATFIKHFIHRF-NH2
32

Report MIC for H-FIKHFIHRFSATRWRWRWF-NH2
62.5

Report MIC for H-RWRWRWFSGGFIKHFIHRF-NH2
62.5

Report MIC for H-FKKFWKWFRRF-NH2
32

Report MIC for H-FIKHFIHRFGGGIKQLLHFFQRF-NH2
125

Report MIC for H-IKQLLHFFQRF-NH2
62.5

Report MIC for H-RWRWRWFSATFIKHFIHRF-NH2
62.5

Report MIC for H-FIKHFIHRFSGGRWRWRWF-NH2
62.5

Report MIC for H-FIKHFIHRFSGGLQLLKQLLKLLKQF-NH2
32

Report MIC for H-FHFHLHFPSPSPFIKHFIHRF-NH2
125

Report MIC for H-RWRRLLKKLHHLLHSGGFIKHFIHRF-NH2
32

Report MIC for H-FHFHLHF-NH2
16

Report MIC for H-FKKFWKWFRRFGGGFIKHFIHRF-NH2
125

Report MIC for H-RWRRLLKKLHHLLH-NH2
8

Report MIC for H-LQLLKQLLKLLKQFSGGFIKHFIHRF-NH2
32

Report MIC for H-IKQLLHFFQRFGGGFIKHFIHRF-NH2
125
